study-target: recombinant guanylate cyclase reporter cell line (Rattus norvegicus, UniProt P20595)
Construct: expressed in transfected cells
Sequence (P20595 1-619): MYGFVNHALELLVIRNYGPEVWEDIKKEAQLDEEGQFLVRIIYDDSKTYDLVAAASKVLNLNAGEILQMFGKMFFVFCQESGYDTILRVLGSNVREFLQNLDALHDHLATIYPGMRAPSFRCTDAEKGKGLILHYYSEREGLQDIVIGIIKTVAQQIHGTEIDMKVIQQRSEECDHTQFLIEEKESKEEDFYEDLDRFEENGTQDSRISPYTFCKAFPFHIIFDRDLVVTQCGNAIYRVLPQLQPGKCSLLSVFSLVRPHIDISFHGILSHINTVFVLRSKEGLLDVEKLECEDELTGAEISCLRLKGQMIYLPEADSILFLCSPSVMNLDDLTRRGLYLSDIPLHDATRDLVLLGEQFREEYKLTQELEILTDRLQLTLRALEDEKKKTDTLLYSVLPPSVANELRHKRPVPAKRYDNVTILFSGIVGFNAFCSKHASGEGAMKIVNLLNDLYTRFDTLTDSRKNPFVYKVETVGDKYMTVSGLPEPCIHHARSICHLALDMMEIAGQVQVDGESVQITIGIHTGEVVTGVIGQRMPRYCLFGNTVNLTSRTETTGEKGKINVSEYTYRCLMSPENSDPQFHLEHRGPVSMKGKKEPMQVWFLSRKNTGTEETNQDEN
Sequence (P19686 1-690 partner): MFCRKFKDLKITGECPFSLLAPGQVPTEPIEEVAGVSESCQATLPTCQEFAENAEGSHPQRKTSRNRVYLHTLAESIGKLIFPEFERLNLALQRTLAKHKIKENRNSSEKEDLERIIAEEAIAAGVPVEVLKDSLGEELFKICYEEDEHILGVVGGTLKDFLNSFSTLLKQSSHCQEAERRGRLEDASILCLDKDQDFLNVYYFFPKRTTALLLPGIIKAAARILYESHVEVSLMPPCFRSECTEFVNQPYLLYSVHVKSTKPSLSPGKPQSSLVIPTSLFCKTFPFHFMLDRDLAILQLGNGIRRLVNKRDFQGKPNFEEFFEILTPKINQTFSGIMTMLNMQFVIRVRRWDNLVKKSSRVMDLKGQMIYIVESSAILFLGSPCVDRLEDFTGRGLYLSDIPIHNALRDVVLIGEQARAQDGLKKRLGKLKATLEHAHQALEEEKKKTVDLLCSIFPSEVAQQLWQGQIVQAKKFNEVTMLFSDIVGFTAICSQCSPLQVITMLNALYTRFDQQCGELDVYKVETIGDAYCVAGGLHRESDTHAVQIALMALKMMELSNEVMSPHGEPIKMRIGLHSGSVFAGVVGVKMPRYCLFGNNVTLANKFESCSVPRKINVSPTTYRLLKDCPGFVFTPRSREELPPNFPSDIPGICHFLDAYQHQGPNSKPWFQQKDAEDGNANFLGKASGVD
method-description: Effect on a recombinant guanylate cyclase reporter cell line
Type: cell-based
condition-info: MEC = minimum effective concentration; in some cases mean values from individual determinations
outcome-measure: MEC (nM)
Give a bare numeral; the unit nM is implied.

Record excerpt, results attached:
- compound: "O=C(O)c1cnn(C2CCCN(c3cc(Cl)ccc3-c3ccc4c(c3)CCN(CC(F)(F)F)C4)C2)c1C(F)(F)F (single isomer, unassigned)"
  MEC / nM: 10.0
- compound: "O=C(O)c1cnn(C2CCCN(c3cc(Cl)ccc3-c3ccc(N4CCN(C(=O)C5CC5F)CC4)cc3)C2)c1C(F)(F)F (single isomer, unassigned)"
  MEC / nM: 10.0
- compound: "CN1CCN(c2ccc(-c3ccc(Cl)cc3N3CCCC(n4ncc(C(=O)O)c4C(F)(F)F)C3)c(Cl)c2)CC1 (single isomer, unassigned)"
  MEC / nM: 10.0
- compound: "O=C(O)c1cnn(C2CCCN(c3cc(Cl)ccc3-c3ccc(N4CCN(C(=O)C56CC(F)(C5)C6)CC4)cc3)C2)c1C(F)(F)F (single isomer, unassigned)"
  MEC / nM: 3.0
- compound: "O=C(O)c1cnn(C2CCCN(c3cc(Cl)ccc3-c3ccc(N4CCN(C(=O)C5CC(F)(F)C5)CC4)cc3)C2)c1C(F)(F)F (single isomer, unassigned)"
  MEC / nM: 10.0

# ---- query compound ----
The recorded MEC for O=C(O)c1cnn(C2CCCN(c3cc(Cl)ccc3-c3ccc(N4CCN(CC(F)(F)F)CC4)nc3)C2)c1C(F)(F)F (single isomer, unassigned) [Example 75] is 3.0
